- Method notes: xn = mol fraction of the nth substance listed, in the solute-free solvent
- Condition context: 313.15 K; x2 = 0.2812
Provide the recorded solubility (g/100 g solution) for the entries that follow.
Answers are plain numbers.

compound="CC(C)OC(=O)C(C)NP(=O)(OCC1OC(n2ccc(=O)[nH]c2=O)C(C)(F)C1O)Oc1ccccc1 (centres undefined) + CCO + O" assay_endpoint="solubility (g/100 g solution)" observed_measurement=29.7

Hi team, please reply with solubility (g/100 g solution) for each item in this list.
1. COc1cc2c(cc1OC)-c1cc3ccc(OC)c(OC)c3c[n+]1CC2.[Cl-] + CCO + O
2. Nc1cccc(S(=O)(=O)c2cccc(N)c2)c1 + CCO + O
3. Cc1[nH]c(=O)c(C#N)cc1-c1ccncc1 + CCO + O

1: 5.15; 2: 1.56; 3: 0.00586

This collection of values is drawn from the CheMixHub drug solubility set.
